# Assay system: human GLP-1 receptor (human, UniProt P43220 24-463)
# Protocol summary: cell-based or functional assay
Numbered stars: 1 amine (or outer) side, 2 acyl side, 3 side chain; on linkers, the order of the positions; unused ones are H or OH. Square brackets hold non-standard residues; d marks the D form. Side chains are listed from the residue outwards. Ends that are not written are not given here. * marks the point of attachment. C20 diacid = O=C(O)CCCCCCCCCCCCCCCCCCC(=O)*; C18 diacid = O=C(O)CCCCCCCCCCCCCCCCC(=O)*; γGlu = O=C(O)[C@H](CCC(=O)[*:2])N[*:1]; Palmitoyl = CCCCCCCCCCCCCCCC(=O)*; AEEA = NCCOCCOCC(=O)O; Aib = CC(C)(N)C(=O)O
Assign EC50 of GLP-1 receptor mediated cAMP production to each entry below.
Respond with the bare value in pM.

EC50 of GLP-1 receptor mediated cAMP production for H[Aib]QGTFTSDYSKYLDERKAK([γGlu-γGlu-Palmitoyl])EFVEWLEGGPSSG-NH2 (not fully specified; printed as HAibQGTFTSDYSKYLDERKAK*EFVEWLEGGPSSG-Amid) [Compound 69] ?
778

EC50 of GLP-1 receptor mediated cAMP production for H[Aib]QGTFTSDYSKYLEEKRAK([AEEA-AEEA-γGlu-C18 diacid])EFVAWLEAGGPSSG-NH2 (not fully specified; printed as HAibQGTFTSDYSKYLEEKRAK**EFVAWLEAGGPSSG-Amid) [Compound 53] ?
532

Query (binder): H[Aib]QGTFTSDK([AEEA-AEEA-γGlu-C20 diacid])SKYLDERAAKEFVAWLEAGGPSSG-NH2 (not fully specified; printed as HAibQGTFTSDK***SKYLDERAAKEFVAWLEAGGPSSG-Amid) [Compound 13] ; field requested: EC50 of GLP-1 receptor mediated cAMP production
76

// EC50 of GLP-1 receptor mediated cAMP production lookup, key: H[Aib]QGTFTSDYSKYLEEKRAK([AEEA-AEEA-γGlu-C18 diacid])EFVEWLEAGGPSSG-NH2 (not fully specified; printed as HAibQGTFTSDYSKYLEEKRAK**EFVEWLEAGGPSSG-Amid) [Compound 54]
219
